- Test system: A2780
- assayProtocol: Clonogenic survival assay
- Type: cell-based
- measurementContext: Homo sapiens; A2780 (p53 wt), 24 h treatment, colonies after at least 10 days
observationType: IC50 (nM)
The answer is to be given in nM; state only the numeric part.

Prompt line: Supply IC50 value. Item: O=c1[nH]c(=O)n([C@H]2C[C@H](O)[C@@H](CO)O2)cc1F [5-FdU, 5-fluorodeoxyuridine]
Response line: 1.32

---

- Tested on: p53 WT cancer lines
- assayProtocol: Clonogenic survival assay, panel of p53 WT lines
- measurementContext: read-out: IC50 values; p53 WT cancer lines except A375
pIC50: −log10 of the molar value.
observationType: pIC50

Prompt line: Supply pIC50 value. Item: "O=c1[nH]c(=O)n([C@H]2C[C@H](O)[C@@H](CO)O2)cc1F"
Response line: > 8.00

---

- Test system: HEC1A endometrial cancer cells
- assayProtocol: Colony survival assay, shSCR and shUDG cells
- Assay type: cell-based, human
- measurementContext: HEC1A shUDG vs shSCR
observationType: effect of UDG depletion on drug sensitivity

# compound, reading
rows = [
    ("N.N.[Cl][Pt][Cl] [cisplatin, cis-diamminedichloroplatinum II]", "no further sensitivity"),
    ("COc1cccc2c1C(=O)c1c(O)c3c(c(O)c1C2=O)C[C@@](O)(C(=O)CO)C[C@@H]3O[C@H]1C[C@H](N)[C@H](O)[C@H](C)O1", "no further sensitivity"),
]
